- target-of-assay: menin and MLL (menin, Flag tagged; biotinylated MLL1 peptide 1-46aa) (Homo sapiens)
- Sequence (O00255 whole entry): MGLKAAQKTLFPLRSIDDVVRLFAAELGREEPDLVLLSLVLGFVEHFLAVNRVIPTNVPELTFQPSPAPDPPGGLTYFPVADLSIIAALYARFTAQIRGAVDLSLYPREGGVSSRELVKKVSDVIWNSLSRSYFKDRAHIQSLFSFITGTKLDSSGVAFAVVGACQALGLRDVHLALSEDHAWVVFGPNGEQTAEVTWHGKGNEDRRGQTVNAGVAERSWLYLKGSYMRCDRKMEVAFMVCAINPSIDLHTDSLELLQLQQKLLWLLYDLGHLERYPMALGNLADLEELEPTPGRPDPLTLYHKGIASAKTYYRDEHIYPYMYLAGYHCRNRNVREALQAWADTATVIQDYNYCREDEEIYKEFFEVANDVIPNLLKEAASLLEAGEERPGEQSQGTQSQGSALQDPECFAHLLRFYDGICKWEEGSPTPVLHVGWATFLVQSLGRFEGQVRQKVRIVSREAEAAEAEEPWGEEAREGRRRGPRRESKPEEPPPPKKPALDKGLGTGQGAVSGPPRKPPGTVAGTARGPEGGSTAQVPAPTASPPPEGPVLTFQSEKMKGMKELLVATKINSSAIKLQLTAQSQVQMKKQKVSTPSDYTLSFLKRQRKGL
- procedure-text: biochemical
- condition-summary: cell free IC50 (nM), 1 nM menin, 10 nM biotinylated MLL1 peptide, AlphaLISA
Counter-ions that a name gives are not always drawn.
Below is a list of entries, each paired with its recorded IC50 value.
Supply the numeric figure in nM, leaving out any unit text.

Worked set:
C=CC(=O)Nc1cccc(Nc2ccc(CN[C@H]3CC[C@@H](N(C)c4nc(NC)nc5sc(CC(F)(F)F)cc45)C3)cc2)c1 [Example 55, hydrochloride]    9.8
CN(c1ncnc2sc(CC(F)(F)F)cc12)[C@@H]1CC[C@H](NCc2ccc(OCCN3CCOCC3)cc2)C1 [Example 30, hydrochloride]    44.6

Task: Give me measured IC50, please, for this molecule: FC(F)(F)Cc1cc2c(N[C@@H]3CCC[C@H](NCc4ccc(Oc5ccccc5)cc4)C3)ncnc2s1 [Example 41, hydrochloride]
Output: 472

Task: Give me measured IC50, please, for this molecule: OCCN(c1ncnc2sc(CC(F)(F)F)cc12)[C@@H]1CC[C@H](NCc2ccc(-c3cccnc3)cc2)C1 [Example 42, hydrochloride]
Output: 105
